- Tested target: CDK1/Cyclin B1 (Homo sapiens, UniProt P06493)
- Sequence (P06493 whole entry): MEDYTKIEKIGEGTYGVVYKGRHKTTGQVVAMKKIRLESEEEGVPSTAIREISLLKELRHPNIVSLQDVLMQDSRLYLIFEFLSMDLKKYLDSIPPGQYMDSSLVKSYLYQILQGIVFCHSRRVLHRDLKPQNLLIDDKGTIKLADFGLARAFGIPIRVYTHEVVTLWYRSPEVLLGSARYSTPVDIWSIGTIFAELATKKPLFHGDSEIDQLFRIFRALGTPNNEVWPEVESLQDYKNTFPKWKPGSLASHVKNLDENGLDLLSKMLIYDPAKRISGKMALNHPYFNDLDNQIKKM
- Sequence (P14635 whole entry partner): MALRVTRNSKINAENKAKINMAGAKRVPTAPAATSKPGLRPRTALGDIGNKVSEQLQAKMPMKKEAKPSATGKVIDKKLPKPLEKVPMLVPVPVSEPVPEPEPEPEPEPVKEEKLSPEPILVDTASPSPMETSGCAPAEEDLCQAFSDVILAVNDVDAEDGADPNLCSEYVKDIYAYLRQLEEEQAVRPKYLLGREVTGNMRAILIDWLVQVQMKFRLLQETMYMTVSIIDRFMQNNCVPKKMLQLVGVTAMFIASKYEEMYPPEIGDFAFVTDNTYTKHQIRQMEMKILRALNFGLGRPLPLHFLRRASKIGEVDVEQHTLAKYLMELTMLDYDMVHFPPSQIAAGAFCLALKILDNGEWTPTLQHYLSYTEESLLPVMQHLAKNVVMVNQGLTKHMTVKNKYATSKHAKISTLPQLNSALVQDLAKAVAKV
- Assay method text: CDK1/Cyclin B1 Biochemical Assay (TR-FRET), 0.015 mM ATP
- Run parameters: 0.15 μM Rb (Ser780)-biotin substrate, pH7.0, 60 min preincubation, 120 min reaction, room temperature
Parameter: IC50 (µM)
Answer in µM, number only, no unit symbol.

Below, 2 molecules whose answers are already recorded.
CCCNC(=O)O[C@H]1CC[C@@H](c2cc(Nc3ccc4c(c3F)CS(=O)(=O)N4C3COC3)n[nH]2)C1 (racemic) [Example 260] = 0.11
CC(C)NC(=O)O[C@H]1CC[C@@H](c2cc(Nc3cc4c(cc3F)CS(=O)(=O)N4)n[nH]2)C1 (relative stereo) = 2.2

As a next step, examine the molecule that follows.
Would you kindly share the measured IC50 for COCC(C)NC(=O)O[C@H]1CC[C@@H](c2cc(Nc3ccc4c(c3F)CNS4(=O)=O)n[nH]2)C1 (relative stereo) ? 0.332

###

Reported pIC50 values for the following molecules.
- Tested target: CDK1/Cyclin B1 (Homo sapiens)
- Assay method text: CDK1/Cyclin B1 Biochemical Assay (TR-FRET), 0.015 mM ATP
- Run parameters: 0.15 μM Rb (Ser780)-biotin substrate, pH7.0, 60 min preincubation, 120 min reaction, room temperature
For clarity, pIC50 is expressed as the negative log10 of concentration in mol/L.

Take a look at these entries with their results.
COCCN1c2ccc(Nc3cc([C@@H]4CC[C@H](OC(=O)NC(C)C)C4)[nH]n3)cc2CS1(=O)=O (relative stereo) = 7.29
CC[C@H](C)NC(=O)O[C@H]1CC[C@@H](c2cc(Nc3ccc4c(c3F)CS(=O)(=O)N4C3COC3)n[nH]2)C1 (racemic) [Example 261] = 7.31
CCCNC(=O)O[C@H]1CC[C@@H](c2cc(Nc3cc4c(cc3F)S(=O)(=O)NC4)n[nH]2)C1 (single isomer, unassigned) [Example 42a] = 6.05
CC[C@H](C)NC(=O)O[C@H]1CC[C@@H](c2cc(Nc3ccc4c(c3F)CN(C3CC3)S4(=O)=O)n[nH]2)C1 (single isomer, unassigned) [Example 117a] = 6.49
CCCNC(=O)O[C@H]1CC[C@@H](c2cc(Nc3ccc4c(c3F)S(=O)(=O)NC4)n[nH]2)C1 (single isomer, unassigned) [Example 189a] = 6.46

Give recorded pIC50 with CDK1/Cyclin B1 (Homo sapiens) for the following molecule: CC(C)NC(=O)O[C@H]1CC[C@@H](c2cc(Nc3cc(F)c4c(c3)S(=O)(=O)NC4)n[nH]2)C1 (relative stereo) 8.26

Input CCCNC(=O)O[C@H]1CC[C@@H](c2cc(Nc3ccc4c(c3F)CS(=O)(=O)N4CC(F)(F)F)n[nH]2)C1 [Example 266b] 7.23

###

- Tested target: CDK2/Cyclin E1 (Homo sapiens, UniProt P24941)
- Assay method text: CDK2/Cyclin E1 Biochemical Assay (TR-FRET), 0.060 mM ATP
- Run parameters: 0.15 μM Rb (Ser780)-biotin substrate, pH7.0, 60 min preincubation, 120 min reaction, room temperature
Here, each record is paired with measured log10 of IC50 data.
Note: values are log10 of IC50 expressed in nM.

Illustrative cases are given below, each with its answer.
CC1NS(=O)(=O)c2ccc(Nc3cc([C@@H]4CC[C@H](OC(=O)NC5(C)CC5)C4)[nH]n3)c(F)c21 (single isomer, unassigned) [Example 52d] = 0.00
CCCNC(=O)O[C@H]1CC[C@@H](c2cc(Nc3ccc4c(c3)CS(=O)(=O)N4C)n[nH]2)C1 (relative stereo) = 0.93
Cc1c(Nc2cc([C@@H]3CC[C@H](OC(=O)NC(C)C)C3)[nH]n2)ccc2c1S(=O)(=O)NC2 (relative stereo) = 0.38
O=C(NC1CCC1)O[C@H]1CC[C@@H](c2cc(Nc3ccc4c(c3F)CNS4(=O)=O)n[nH]2)C1 (relative stereo) = 1.18

Using the record for CC(C)NC(=O)O[C@H]1CC[C@@H](c2cc(Nc3ccc4c(c3F)C(C)NS4(=O)=O)n[nH]2)C1 (single isomer, unassigned) [Example 51b] , report its log10 of IC50. 0.52

And the next one, CC[C@H](C)NC(=O)O[C@H]1CC[C@@H](c2cc(Nc3ccc4c(c3F)CN(C)S4(=O)=O)n[nH]2)C1 (single isomer, unassigned) [Example 123b] ? 0.41
